Test Protocol: qHTS assay to identify small molecule antagonists of the estrogen related receptor signaling pathway with the pleiotropic PPARgamma coactivator (PGC) from Tox21 10K library (AID 1224841); further: actives are mostly falling curves and most rising ones were filed inactive; nearly all actives have a fitted effect of over 50% in size
Cond: PGC/ERR reporter cell line, ONE-Glo luciferase, 18 h; series mostly up to 92.4 µM
Inconclusive results are not listed. Calls of active or inactive are those of the source. How the calls were made is not given here.
Output constraint: value belongs to true for active, false for inactive

Reference set (10 entries):
Molecule | Assigned Category
ClCCOCCOCCCl | false
CC(C)(O)c1ccc(CNC(=O)c2cccnc2Oc2ccc(F)cc2)cc1 | true
COCCCN1CCC(NC(=O)c2cc(Cl)c(N)c3c2OCC3)CC1 | false
COc1ccc(-c2nc3ccc(C4=NNC(=O)CC4C)cc3[nH]2)cc1 (stereo unspecified) | false
CC(=O)[O][Al][O]C(C)=O | false
CN(C)c1ccc(C(c2ccccc2)c2ccc(N(C)C)cc2)cc1 | true
COC(C)OC | false
Nc1cccc(S(=O)(=O)c2cccc(N)c2)c1 | false
O=C1CCC(=O)O1 | false
N=c1ccn2c(n1)O[C@H]1[C@H](O)[C@@H](CO)O[C@H]12 | false

**Query** What call does the record list for "Nc1ccc([N+](=O)[O-])c(C(F)(F)F)c1" ?
**Result** false

**Query** What call does the record list for "O=C(O)c1nc(Cl)c(Cl)c(Cl)c1Cl" ?
**Result** false

**Query** What call does the record list for "CCN(CC)c1ccc(C(=C2C=CC(=[N+](CC)CC)C=C2)c2cc(S(=O)(=O)O)ccc2S(=O)(=O)[O-])cc1" ?
**Result** true

**Query** What call does the record list for "Nc1cc(C(=O)O)c(O)c(S(=O)(=O)O)c1" ?
**Result** false

**Query** What call does the record list for "Nc1ccc(N)c2c1C(=O)c1ccccc1C2=O" ?
**Result** true

**Query** What call does the record list for "CN(C)CCCN1c2ccccc2Sc2ccccc21" ?
**Result** false
